Hey, just so you know, these numbers are from the supplement of paper PMC12764529.

assay: folding stability dG unfold (combined trypsin and chymotrypsin); higher = more stable
assay-endpoint: folding stability dG unfold (kcal/mol)
Answer in kcal/mol, number only, no unit symbol.

Reported folding stability dG unfold ( SAGKPKKKIKIKLYNVDTGEEIEIEVTVEELKKLLEKLGFEVVKIEYDEETGEVTIYVKVDGYYLEIEESAG [r5_521_TrROS_Hall] ) = 3.41

According to the records, this sequence SAGGSAGGSAGGMTPIEVTVELEEPTRRTTRRFTFTSPEEVEAYLKALPASWRVTRVELRSAGGSAGGSAGG [r17_410_JUSTAS] displays folding stability dG unfold of 1.66

Item: SMIVKSEPVKDPNSDLTTTPVTITLPVREYDPSLGVTRERLVTINGTVITTLLEKHPDGSVISTVDVLPASA [r9_1058_JUSTAS] | folding stability dG unfold: 0.427

Entry under test: SAGGSAGGSAGGITPEEIEKIREAPLPNGAPIKDVFVEGDYAVVLFETEPDLYLIVIPNKSAGGSAGGSAGG [r7_995_TrMRF] . Its folding stability dG unfold was -0.907

The sequence SAGGLKEIAKQLGPGADKVEIEWEPQPHDDMEMYRWKIRVKNPNNGKKRKLEVSIMYDPNGNIRSIMISAGG [r13_358_TrROS] showed folding stability dG unfold equal to 2.34

* * *

assay: folding stability dG unfold from trypsin proteolysis; higher = more stable
Consider the following sequences; for each one, report its folding stability dG unfold.
Answer format: number, then unit.

The sequence listed as SAGGSAAVTITSVPPDGTIRATATNPTNGETVTITFSPETSPEEAVAAIQKELGGPVPVTAVTPAGSAGGSA [r15_544_JUSTAS] has a reported folding stability dG unfold of 0.975 kcal/mol

Data point: SAGGSAGGSAGGEKKWIFMVSFRHPDGKERKFTFPWNDLEEIKENLPGIDDVEIEWMPMSAGGSAGGSAGGS [r10_437_TrROS] ; folding stability dG unfold = -0.025 kcal/mol

Record SAGGSAGMELVPLPSPQLVPLTVETTPLPETGTTLVTETSPLGERTVTRVDPAGNVTTLSSTSTSTSAGGSA [r15_790_JUSTAS] . Reported folding stability dG unfold: -0.389 kcal/mol

The sequence SAMRAAVLAAAEEITAHPEFEAVGISPDGTFLFRNPATGKVYRIRLEAEDDGEGVIVRVPSIEPLDAPDSAG [r14_20_TrMRF] showed folding stability dG unfold equal to 1.43 kcal/mol

* * *

assay: folding stability dG unfold (combined trypsin and chymotrypsin); higher = more stable
Exercise: state measured folding stability dG unfold for each of the sequences provided.
Numeric only. Scale: kJ/mol

Sure, the documented folding stability dG unfold for SAGGSAGGSAGGSKNKKIKLGPEVKIKVKIEAKLEGGYSSENGLPEFKLDVKLEIGEVESAGGSAGGSAGGS [r10_877_TrMRF] is 3.93

# folding stability dG unfold (sequence: SAGGSAGGMKYTTTTETSVVEVRTDPKTGTTTRLERVTVTTVDSSGNVLSTTETLEERVDPVPASAGGSAGG [r6_181_JUSTAS] ) is 8.99

Memo: SMKIKIYVAPPGYVVVRITGPNGFYIPIPAKDPDEAKAKLEELINNLQERNGHKPDIDVVPFPPGQEIGDSA [r9_786_TrROS] , reported folding stability dG unfold: 8.08

folding stability dG unfold in this record for SAGGSAGGSAGGMKIKTITGDPSTGVYTITFPDGKVETIPMTQEEVEALAKENPGIEITLSAGGSAGGSAGG [r7_175_JUSTAS] : 10.3

* * *

experiment: folding stability dG unfold (combined trypsin and chymotrypsin); higher = more stable
Consider the following sequences; for each one, report its folding stability dG unfold.
Use kcal/mol as the unit, but write only the number.

response.value for SAGGSAGGSAGMKEGEKPKVKIEIDVLIEVDGKLYRVRAEAEINEDGEITIKVEIEELPDSAGGSAGGSAGG [r11_551_TrROS_Hall] (field: folding stability dG unfold) = 3.3

# sequence MDDVVRVVLPVRVRIRDPVAPDRPEREVEILLERDVPLDEESLEELLEEAERAAEELARALGGEEAEVEPVS [r1_300_TrMRF] ; its folding stability dG unfold = 1.15

* * *

experiment: folding stability dG unfold from trypsin proteolysis; higher = more stable
Could you please report measured folding stability dG unfold for the items listed next?

The measured folding stability dG unfold associated with SAGGSAGGAANIPADQTLEFPTPDGYRRRLTYYPDEGLLVAEYVNPADGTPTFYTFDIPPDSTLSAGGSAGG [r6_406_TrMRF] reads 0.864 kcal/mol

GET /value?item= SAGGSAGGSAGVVDEVKAALEPQGLKVLSVTPGSSSVTVTVLDPKKGETTTFTIPLDDPLSAGGSAGGSAGG [r11_428_JUSTAS] &field=folding stability dG unfold returns 1.02 kcal/mol

Noted for SAGGSAGGSEKVIVVPSEEALKALEDAGIEVKKIEVFTETVTYYYPPGFPPVTETRTYLLVEVSAGGSAGGS [r12_78_TrROS_Hall] : its folding stability dG unfold reads 1.45 kcal/mol

Recorded result, SAGGSAFPTIAESPGVVKIEPLPDGTIKITFNTSEEAKEKIIEELKKLGNFNVEEDPEKPVLIVKKSAGGSA [r15_554_JUSTAS] , folding stability dG unfold: 1.7 kcal/mol

Notebook: SAMVLVKIELYDPENEEPLATAEFVVPEEDLEAFVEEAKKIFGVAEDAFIKVEAAPLEPLTDESGEEVLSAG [r14_297_TrMRF] , folding stability dG unfold read as 2.08 kcal/mol

Just so you know, measured folding stability dG unfold for SAGGMITATFTIDLGAGPVTFTFDITDIETALEKIKEYLKSQGIDAKLVSVSVDPANGTVPMKLSVPPSAGG [r13_567_JUSTAS] came out at 1.58 kcal/mol

Recorded result, SAGGSAGGSKLEEILKKLPPNAKITIEKDEETNVYTITITNKNGEKYTFTFSKEEVKKLLEKLSAGGSAGGS [r12_174_TrROS_Hall] , folding stability dG unfold: 3.13 kcal/mol

Short answer for SAGGSAGGSAPVFLRVEVENPNGERFELTAKLGDPIEIDPSVVDNVKVEVFDPDGNKAEFELNSAGGSAGGS [r12_380_TrMRF] : folding stability dG unfold was 0.284 kcal/mol

Short answer for SAMEINIVLVAPPESPEALELAKEVAELVAKEIEEEGIPVEVEVEKIEFFRLPDGSIVVLIPIKVKPPESAG [r14_48_TrMRF] : folding stability dG unfold was 1.89 kcal/mol

SAGGGAAEEAARALIDEAKAALGLSEISEVVLTREGDGVTMTVRFPGKGLVITIDLAAGVVTAVEDVSAGGS [r16_171_JUSTAS] yielded folding stability dG unfold of 2.18 kcal/mol

Field folding stability dG unfold (entry SAGGSAGGSAGGSGMTLSVTVLEEKPERLPNGGTIITRTVRIPETGEVIEEVTYEPGALSAGGSAGGSAGGS [r4_94_JUSTAS] ) reads -0.594 kcal/mol

// recorded folding stability dG unfold for SAGGSAGGSAGTLKLTLEVTVTRLYRLPDGSGSLVAETVRVRVEVELEVDELDEDGRLLLSAGGSAGGSAGG [r11_558_TrROS_Hall] : 3.08 kcal/mol

// sample SAGGDLEAKPFEITFVIKAKPFPTPDGRLVETPEKVFKLKVLVVRGPNETRLFVFDEDGNLLFTSNLSAGGS [r16_92_TrMRF] , its folding stability dG unfold was 2.37 kcal/mol

// field: folding stability dG unfold; key: SAGGSAMLDNLVPVGSVTVVERFPDGLLRVVNYTFWRDPESGAWYVSADVEVFPLLPEDPVLLEAGSAGGSA [r15_207_TrMRF] ; value = 2.24 kcal/mol

Reported folding stability dG unfold of SAGGSAGGSAGGWIFIIEIDPDNGEIKINWPNGNSIKIPPEDLDNMPIEIKPIPPPPNDKSAGGSAGGSAGG [r7_99_TrROS] : 1.83 kcal/mol

For this sequence ( SAGGSAMIVIPVDPNDPAAEKTVAEAIAAGKDVIIRSPSGKYTFYKPDGSKKELSSEEEIKKAGLESAGGSA [r15_94_JUSTAS] ), measured folding stability dG unfold is 0.249 kcal/mol

The sequence SAGPEKPFDIVIVEVKSMEVHEDPNGRRSVRIPVVARIPGGYYIRFEIWINPPTGNVSIDWEIVPLDDSAGG [r19_320_TrROS] showed folding stability dG unfold equal to 2.73 kcal/mol

The sequence SAGVEELAEKIAKELEGEDFEVEAEVDPEKGTITVVVKTPDYVVVKEIYIDPKNDKPVMDVKVFKPNESAGG [r19_2_TrMRF] showed folding stability dG unfold equal to 0.241 kcal/mol

Just so you know, measured folding stability dG unfold for SAGGPGAAPTSTTVTVTIHLPMPPDVSDEEAKALAKERIKEEFPPSYTIESITVDPATNVVTATVKVASAGG [r19_81_JUSTAS] came out at 3.32 kcal/mol

Field folding stability dG unfold (entry SAGGMKVTEEPDATIVEVPLPDRKLTLTITRDGPGVTVTVTEDGEVLKTIPTDGPAEEAIAAAIAALSAGGS [r8_276_JUSTAS] ) reads 1.04 kcal/mol

// sample SAGGMLEVTEEPLELGDRPVTRTTITLPDGTVVTVTTEAGTGAMTVTYPDGTTKTVTSEEDALAALLSAGGS [r8_168_JUSTAS] , its folding stability dG unfold was 2.66 kcal/mol

Please fill in: folding stability dG unfold reported for SAKMVVLKAYFKGDGDEIKEIADAIDFPYTIEKIPDYPDYYIATFVFPTEEKAPEWEKALKEKGYIVEGSAG [r14_745_TrMRF] = 1.88 kcal/mol

// SAGGSAGGSAGMLKKSPSPSIITVKIKPPDSDEVKTINIPPDKPEEVEKLREKGLEIEVLSAGGSAGGSAGG [r11_1006_JUSTAS] : folding stability dG unfold value = -0.459 kcal/mol

What the record says about SMIKPGDTVTIVLKVKPEDLEKIREAVEELLRELFPDVEVESVEVNPEEENYVVITVRVDGKEITLVIERSA [r9_1079_TrROS_Hall] : folding stability dG unfold is 2.78 kcal/mol

So, SAGYEWVRELAKKKGFKDIKIEDVQPQRPPDGMEYMHVRIEVQHPGKKREVDIWMRPDNIEEALEQALKSAG [r5_549_TrROS] ? Its folding stability dG unfold was 0.402 kcal/mol

Given item SAGMKPGDMRPVEIPFEIYQYDDGGPKPVAPMTIKIMVNPDEGYVMLEIENPGNGEPVIIFTLPADDISAGG [r19_413_TrROS] , the value recorded as its folding stability dG unfold is 1.65 kcal/mol

// SAGGNMWMVRVKIDDGKTFMITSPEDIEEYLKKKLGPNYKIKEVEWHRMPPPNGPPMPMHEFEIEVPSAGGS [r16_408_TrROS] : folding stability dG unfold value = 1.28 kcal/mol
